Measured values drawn from patent US20230365585A1 for this set.

# EC50 values compiled below
- Tested on: RSV A2
- Experimental Details: RSV plaque reduction assay
- Assay type: cell-based, RSV (RSV A2 ECACC, 0709161v)
- Test Parameters: human respiratory syncytial virus, HepG2, 48 h, Hep-G2 cells, RSV A2, 2 days; mean of at least two experiments
Numbers only here, please. The scale is nM.

[Q] What value of measured EC50 is listed for `Cc1cncc(-c2nn3c(c2C(=O)N[C@H]2N=C(c4ccccc4)c4cccc(F)c4NC2=O)OCCCC3)c1` ?
[A] 219

[Q] Okay, and `O=C(N[C@H]1N=C(c2ccccc2)c2cccc(F)c2NC1=O)c1c(-c2ccccc2F)nn2c1SCCCC2` ?
[A] 34

[Q] Okay, and `O=C(N[C@H]1N=C(c2ccccc2)c2ccccc2NC1=O)c1c(-c2ccccc2F)nn2c1OCCCC2` ?
[A] 52

Next compound, please.
[Q] What value of measured EC50 is listed for CC1CCCn2nc(-c3ccc(F)cc3F)c(C(=O)N[C@H]3N=C(c4ccccc4)c4cccc(F)c4NC3=O)c2O1 (single isomer, unassigned) [Example 17-1] ?
[A] 19
